Below, each entry is listed with its recorded TGI.
Test system: A549 NSCLC
Assay: NCI tumour cell line growth inhibition, 48 h

Example cases with answers are listed next.
{"COMPOUND": "Cc1c2ncccc2c(C)c2c1[nH]c1ccccc12", "MEASUREMENT_TARGET": "A549 NSCLC", "ASSAY_RESULT": "21.1 µM"}
{"COMPOUND": "O=C(CSC1=NCCN1)c1ccccc1", "MEASUREMENT_TARGET": "A549 NSCLC", "ASSAY_RESULT": "> 100 µM"}
{"COMPOUND": "COc1ccc(CN=CN/C(C#N)=C(\\N)C#N)cc1OC", "MEASUREMENT_TARGET": "A549 NSCLC", "ASSAY_RESULT": "> 100 µM"}
{"COMPOUND": "Clc1ccc(-c2nc(-c3ccc(Cl)cc3)[s+]s2)cc1", "MEASUREMENT_TARGET": "A549 NSCLC", "ASSAY_RESULT": "> 100 µM"}

Output TGI of Cc1nc2ccccc2n1CCc1nc2ccccc2s1
> 100 µM

---

Test system: NCI-H460 lung
Experiment: NCI tumour cell line growth inhibition, 48 h
MEASURE: TGI

Solved cases (4 shown):
{"COMPOUND": "O=C(O)C(Cc1ccc(O)c([N+](=O)[O-])c1)N1C(=O)c2ccccc2C1=O (stereo not given)", "MEASUREMENT_TARGET": "NCI-H460 lung", "MEASURE": "TGI", "ASSAY_RESULT": "> 100 µM"}
{"COMPOUND": "NC(N)=N/N=C/c1c(-c2cc(Cl)sc2Cl)nc2n1CCS2", "MEASUREMENT_TARGET": "NCI-H460 lung", "MEASURE": "TGI", "ASSAY_RESULT": "> 50 µM"}
{"COMPOUND": "O=c1[nH]cnc2c1ncn2[C@H]1CO[C@@H](CO)[C@@H]1O", "MEASUREMENT_TARGET": "NCI-H460 lung", "MEASURE": "TGI", "ASSAY_RESULT": "> 100 µM"}
{"COMPOUND": "C=C1C(O)C2C(=C(CC(C)C)C13CC3)C(=O)C(C)(C)C2OC (stereo not given)", "MEASUREMENT_TARGET": "NCI-H460 lung", "MEASURE": "TGI", "ASSAY_RESULT": "> 100 µM"}

Recall and state the measured TGI for CCCCCc1c(CCCC)c(=O)[nH]c2cc(CNCC(OC)OC)ccc12 .
23.9 µM

---

System: K-562 leukemia
Test: NCI tumour cell line growth inhibition, 48 h
MEASURE: TGI

Example results:
{"COMPOUND": "Cc1cc2occ(C)c(=O)c2c2c1OC(C)(C)S2", "TGI": "> 100 µM"}
{"COMPOUND": "Cc1ccc(N2C(=O)C(Cl)=C(Nc3cccc(O)c3)C2=O)cc1Cl", "TGI": "52.8 µM"}
{"COMPOUND": "C=C1C(=O)O[C@H]2[C@H]1CC/C(COC(=O)c1ccc(C(=O)O)s1)=C\\CC[C@@]1(C)O[C@@H]21", "TGI": "> 100 µM"}

Give TGI for this entry on K-562 leukemia: Fc1cccc2nc(-c3ccccc3)cc(OCc3ccccc3)c12
> 100 µM

State, for K-562 leukemia, measured TGI of the compound listed here: COc1cccc2c1C1=CC(=O)CCC1C(C)(C)O2 (stereo unspecified)
> 100 µM

Enter measured TGI, system K-562 leukemia, for the compound shown: COc1cc(C2c3cc4c(cc3OC(N3CCOCC3)C2C)OCO4)cc(OC)c1O (stereo unspecified)
> 75.5 µM
